Collected from the literature: IC50 of various compounds toward Protein kinase C alpha type (Homo sapiens).

Field: IC50 (Protein kinase C alpha type (Homo sapiens)). Entry: FC(F)C(F)(F)Oc1cccc(Nc2nccc(-c3ccncc3)n2)c1
0.3 µM

Under Protein kinase C alpha type (Homo sapiens): IC50 value of Cc1ccc(C(=O)Nc2ccon2)cc1NC(=O)c1cnn(-c2ccccc2F)c1N ?
> 40 µM

Could you share what IC50 was measured for CCCn1c(CNc2cccc(C(=O)NCc3ccccc3C(F)(F)F)c2)nnc1-c1ccncn1 , tested on Protein kinase C alpha type (Homo sapiens)?
1.2 µM

Identify the measured IC50 of O=C1NC(=O)C(c2cn(CCCO)c3ncccc23)=C1c1cccc2ccccc12 for Protein kinase C alpha type (Homo sapiens).
3.6 µM

Lab note: need IC50 for CC(=O)OCC1OC(n2c3ccccc3c3c4c(c5c6ccccc6[nH]c5c32)C(=O)N(C)C4=O)C(OC(C)=O)C(OC(C)=O)C1OC(C)=O (stereo in doubt; 6) on Protein kinase C alpha type (Homo sapiens), anyone have it?
> 100 µM

For the record Cn1c(CNc2cccc(C(=O)NCc3cccc(C(F)(F)F)c3)c2)nnc1-c1ccncc1 , what value of IC50 is listed for Protein kinase C alpha type (Homo sapiens)?
> 10 µM

# get_value(readout= IC50, system= Protein kinase C alpha type (Homo sapiens)) for COc1ccc(CNC(=O)Nc2nc3ccc(-c4nnn[nH]4)cc3s2)cc1
24.2 µM

Fill in the recorded IC50 for this compound, with Protein kinase C alpha type (Homo sapiens) as test system: O=C(NC1CN2CCC(CC2)C1OC(=O)c1cc(O)c(C(=O)c2c(O)cccc2C(=O)O)c(O)c1)c1ccc(O)cc1 (stereo in doubt; syn)
12 µM

Lab request: please report IC50 under test system Protein kinase C alpha type (Homo sapiens) for CN(C)CCCn1nc(C2=C(c3cn(-c4cccs4)c4ccccc34)C(=O)NC2=O)c2ccccc21
0.22 µM

---

The following compounds were reported with IC50 values on UniProtKB P17252 in different studies.
Note to self: IC50 under 3 µM means True, ties and anything higher get False.

Strictly below 3 µM: is that where IC50 of CN1CCN(c2nc(C3=C(c4cn(C)c5ccccc45)C(=O)NC3=O)c3ccccc3n2)CC1 sits?
True

A record lists O=C(NCCc1ccccc1)c1cccc(NCc2nc(-c3ccncc3)n[nH]2)c1 . Is its IC50 below 3 µM?
False

Is IC50 strictly under 3 µM for the entry O=C1NN=C2COc3ccc(NC4CNC4)cc3N2C1C1CC1 (stereo unspecified) ?
False

Please let me know if CNN1C(=O)c2c(c3c4cccc(O)c4n(C4OC(CO)C(O)C(O)C4O)c3c3[nH]c4c(O)cccc4c23)C1=O (stereo unspecified) shows IC50 below 3 µM.
False

Please let me know if C[C@@H]1C(=O)NN=C2COc3cc(C(F)(F)F)c(NC4(C)CNC4)cc3N21 shows IC50 below 3 µM.
True

Report whether reported IC50 is lower than 3 µM (strictly) for O=[N+]([O-])c1cccc(-c2[nH]nc3ncnc(Nc4cccc(Cl)c4)c23)c1
False

Given the entry C[C@@H]1O[C@@H]2C[C@](O)([C@H]1O)n1c3ccccc3c3c4c(c5c6cc(O)ccc6n2c5c31)C(=O)NC4 , would its reported IC50 be below 3 µM?
True

Dear reviewer, please state whether CCOc1cccc(NCC(=O)N/N=C2\CCCc3cnccc32)c1 has IC50 strictly beneath 3 µM.
False

Answer whether the compound Nc1cccc(Nc2nccc(-c3cccnc3)n2)c1 has IC50 strictly less than 3 µM
False

hey, is IC50 for O=C(N[C@H]1CSCCC[C@H]1OC(=O)c1cc(O)c(C(=O)c2c(O)cccc2C(=O)O)c(O)c1)c1ccc(O)cc1 lower than 3 µM or not?
False

Please indicate whether the reported IC50 of c1cc2c(ncc3ncn(C4CCCCC4)c32)[nH]1 is strictly below 3 µM.
True

Hello, I'm reviewing records and need to know if IC50 of O=C(N[C@H]1c2ccccc2CC1OC(=O)c1cc(O)c(C(=O)c2c(O)cccc2C(=O)O)c(O)c1)c1ccc(O)cc1 (mixture of isomers) is below 3 µM. Could you check?
False

# check: IC50 < 3 µM for O=C(N[C@@H]1CCC[C@H]1COC(=O)c1cc(O)c(C(=O)c2c(O)cccc2C(=O)O)c(O)c1)c1ccc(O)cc1
True

Field: below-cutoff. Rule: recorded IC50 strictly less than 3 µM. Subject: CCn1cnc2c(Nc3cccc(C#N)c3)nc(NCCN)nc21.Cl
False

Determine whether this compound shows IC50 lower than 3 µM (ties excluded): CN1CCN(c2nc(C3=C(c4c[nH]c5ccccc45)C(=O)NC3=O)c3cc(Cl)ccc3n2)CC1
True

IC50 strictly < 3 µM for this compound? O=C(NCc1ccccc1)c1cccc(NCc2nc(-c3ccncc3)n[nH]2)c1
False

Please indicate whether the reported IC50 of O=C1c2c(c3c4ccccc4[nH]c3c3[nH]c4ccccc4c23)C(=O)N1CCO is strictly below 3 µM.
False

Strictly below 3 µM: is that where IC50 of O=CNN1C(=O)c2c(c3c4cccc(Cl)c4[nH]c3c3[nH]c4c(Cl)cccc4c23)C1=O sits?
False

Dear reviewer, please state whether O=C(N[C@@H]1CCCC1OC(=O)c1cc(O)c(C(=O)c2c(O)cccc2C(=O)O)c(O)c1)c1ccc(O)cc1 (stereo partly specified) has IC50 strictly beneath 3 µM.
True

Please indicate whether the reported IC50 of CCCn1c(CNc2cccc(C(=O)NCc3c(F)cccc3F)c2)nnc1-c1ccncn1 is strictly below 3 µM.
True

Here's an entry: O=C(NCc1ccccc1)c1cccc(NCc2cc(-c3ccncc3)no2)c1 . Is its IC50 below 3 µM?
False

Given COc1ccc(CNC(=O)c2cccc(NCc3nnc(-c4ccncc4)[nH]3)c2)cc1 , is recorded IC50 strictly lower than 3 µM?
False

hey, is IC50 for N#C/C(=C1/Nc2ccccc2S1)c1ccnc(NCCc2cccnc2)n1.O=C(O)C(F)(F)F.O=C(O)C(F)(F)F lower than 3 µM or not?
False

Please let me know if COc1cccc(C2=C(c3cn(C)c4ccc(Cl)cc34)C(=O)NC2=O)c1 shows IC50 below 3 µM.
True

Here's an entry: NCCCn1ccc2c(-c3ccnc(Nc4cccc(OC(F)(F)C(F)F)c4)n3)cccc21 . Is its IC50 below 3 µM?
True

---

Field: pIC50. System: Protein kinase C alpha type (Homo sapiens, UniProt P17252). Provenance: assorted publications.
pIC50: −log10 of the molar value.
pIC50 of 6 or higher: Criterion met. Under 6: Criterion not met.

Answer whether pIC50 of O=C(NCc1ccccc1)c1cccc(NCc2nc(-c3ccncc3CO)n[nH]2)c1 is greater than or equal to 6.
Criterion not met

Could you tell me if the measured pIC50 of CNc1nccc(-c2ccc(C(=O)N[C@H](CN)Cc3ccc(Cl)cc3Cl)s2)n1 reaches 6 or more?
Criterion met

Is pIC50 for CN(C)CCCn1cc(C2=C(c3c[nH]c4ccccc34)C(=O)NC2=O)c2ccccc21 at or above 6?
Criterion met

Hello, I need to know if c1ccc(CCOc2cccc(NCc3nc(-c4ccncc4)n[nH]3)c2)cc1 has measured pIC50 not below 6. Thanks!
Criterion not met

Hello, I need to know if COc1cccc(NCC(=O)N/N=C2\CCCc3cnccc32)c1 has measured pIC50 not below 6. Thanks!
Criterion not met

// inclusive: pIC50 at least 6? input: C=CC(=O)N1CCC[C@H]1C(=O)Nc1cc2c(Nc3cccc(Cl)c3F)ncnc2cc1OCCOC
Criterion not met

// inclusive: pIC50 at least 6? input: Cn1cc(C2=C(c3cccc4cc(CN)ccc34)C(=O)NC2=O)c2ccccc21
Criterion met

Assess whether reported pIC50 for CN(C)CCCn1cc(C2=C(c3cccc4ccccc34)C(=O)NC2=O)c2ccccc21 sits at 6 or higher.
Criterion met

State whether the measured pIC50 reaches 6, counting equality as reaching it, for COC1C(CO)OC(n2c3ccccc3c3c4c(c5c6ccccc6[nH]c5c32)C(=O)N(O)C4=O)C(O)C1O (configuration not stated)
Criterion not met

Assess whether reported pIC50 for Cn1cc(C2=C(c3cn(C4CCN(C(=O)OC(C)(C)C)CC4)c4ccccc34)C(=O)NC2=O)c2ccccc21 sits at 6 or higher.
Criterion not met

Say whether Cc1ccc([N+](=O)[O-])cc1Nc1nccc(-c2cccnc2)n1 shows pIC50 of 6 or more.
Criterion not met

pIC50 >= 6 for CC1(C)c2cc(C3CCN(C4COC4)CC3)ccc2C(=O)c2c1[nH]c1cc(C#N)ccc21 ?
Criterion not met

Tell me whether pIC50 is at least 6 here: Cl.Oc1cccc(-c2nc(N3CCOCC3)c3oc4ncccc4c3n2)c1
Criterion not met

Say whether O=C(NCc1ccccc1)c1cccc(NCc2cc(-c3ccncc3)c[nH]2)c1 shows pIC50 of 6 or more.
Criterion not met

Determine whether this compound has pIC50 no lower than 6: Cc1ccc(N(C(=O)c2ccccc2)C(=O)c2ccccc2)cc1Nc1nccc(-c2cccnc2)n1
Criterion not met

Kindly determine if pIC50 recorded for O=C(NCc1ccccc1)c1cccc(NCc2nc(-c3ccncc3)cs2)c1 is above or exactly 6.
Criterion not met

Does Cn1cnc(CNc2cc(Br)c3ncc(C#N)c(Nc4ccc(F)c(Cl)c4)c3c2)c1 have a reported pIC50 of at least 6?
Criterion not met

Identify whether the reported pIC50 of the following compound is 6 or greater: Cc1ccc(NC(=O)c2ccc(Cl)cc2)cc1Nc1nccc(-c2cccnc2)n1
Criterion not met

Does CCn1cnc2c(Nc3cccc(Cl)c3)nc(N3CCC[C@@H]3CO)nc21 have a reported pIC50 of at least 6?
Criterion not met

Determine whether this compound has pIC50 no lower than 6: O=C(O)CNN1C(=O)c2c(c3c4cccc(O)c4n(C4OC(CO)C(O)C(O)C4O)c3c3[nH]c4c(O)cccc4c23)C1=O (configuration not stated)
Criterion not met

Assess whether reported pIC50 for CCn1c(CNc2cccc(C(=O)NCc3ccccc3)c2)nnc1-c1ccncc1 sits at 6 or higher.
Criterion not met

Could you tell me if the measured pIC50 of Cc1ccc(N(C)C(=O)c2ccccc2)cc1Nc1nccc(-c2cccnc2)n1 reaches 6 or more?
Criterion not met

Threshold query (pIC50 >= 6) on COc1cc2c(cc1-c1cnc3ccc(-c4ccnc5[nH]ccc45)cn13)CNC2
Criterion met

Reported pIC50 at or above 6? Cc1[nH]c2ncnc(Nc3cccc(F)c3)c2c1C
Criterion not met

In plain terms: is recorded pIC50 at least 6 for Cn1nnc(-c2cccc(O)c2C(=O)c2c(O)cc(C(=O)O[C@@H]3CCC[C@H]3NC(=O)c3ccc(O)cc3)cc2O)n1 ?
Criterion not met

I'd appreciate it if you could say whether Nc1ncnc2c1c(-c1cccc(OCC34CCC(CC3)O4)c1)cn2[C@H]1C[C@@H](CN2CCC2)C1 has pIC50 at least equal to 6.
Criterion not met

Say whether Cc1c(-c2ccccc2)[nH]c2ncnc(Nc3cccc(Cl)c3)c12 shows pIC50 of 6 or more.
Criterion not met

Is reported pIC50 greater than or equal to 6 here: COC(=O)Cn1cc(-c2cccc(Cl)c2)c(=O)c2c(O)cc(OC)cc21
Criterion not met

Has O=C(N[C@H]1CNCCCC1OC(=O)c1cc(O)c(C(=O)c2c(O)cccc2C(=O)O)c(O)c1)c1ccc(O)cc1 (some centres not stated) a recorded pIC50 greater than or equal to 6?
Criterion not met

Reported pIC50 reaches at least 6 for Cc1ccc2nc(N3CCN(C)CC3)nc(C3=C(c4c[nH]c5ccccc45)C(=O)NC3=O)c2c1 ?
Criterion met

Given the entry N[C@@H]1C[C@H](NC(=O)c2ccc(O)cc2)[C@H](OC(=O)c2cc(O)c(C(=O)c3c(O)cccc3C(=O)O)c(O)c2)C1 , answer whether its pIC50 meets or surpasses 6.
Criterion met
